assay_target: CIB1 and αIIb interaction (GST-CIB1 : F-αIIb peptide) (Homo sapiens, UniProt Q99828)
Construct: made in house; host or cells: BL-21 plus RIL cells (E. coli)
protocol_description: FP assay, 384-well format (screen)
Assay type: binding
test_conditions: quoted in text for comparison with MST EC50; read-out: potency in the 384-well FP assays
measure: IC50

item_smiles	measure	data_value
COc1ccccc1C(=O)c1no[n+]([O-])c1C(=O)c1ccccc1OC.O=C(O)C(F)(F)F	IC50	~4 µM

###

Here the recorded IC50 is given for each entry.
assay_target: CIB1 and αIIb interaction (CIB1-GST : F-αIIb peptide) (Homo sapiens, UniProt Q99828)
Construct: made in house; host or cells: BL-21 plus RIL cells (E. coli)
Sequence (Q99828 whole entry): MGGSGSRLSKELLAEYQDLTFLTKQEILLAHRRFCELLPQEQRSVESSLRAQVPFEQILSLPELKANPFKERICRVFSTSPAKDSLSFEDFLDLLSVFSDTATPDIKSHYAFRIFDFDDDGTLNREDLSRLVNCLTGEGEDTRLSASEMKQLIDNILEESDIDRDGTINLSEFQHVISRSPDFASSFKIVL
protocol_description: FP assay, 1536-well qHTS format (primary and confirmatory screen)
Format: binding
test_conditions: Table S3, confirmatory screen; read-out: IC50 [μM] (confirmatory screen)

molecule	assay_target	unit_tag	IC50
C=C1C(=O)OC2C(OC(=O)C=C(C)C)C(C)=C3C(=O)C=C(C)C3C(O)C12 (centres unmarked)	CIB1 and αIIb interaction (CIB1-GST : F-αIIb peptide) (Homo sapiens, UniProt Q99828)	µM	2
O=C1c2ccccc2C(=O)c2c1ccc(O)c2O	CIB1 and αIIb interaction (CIB1-GST : F-αIIb peptide) (Homo sapiens, UniProt Q99828)	µM	17.8
COc1ccc(CC(NC(C)=O)C(=O)O)cc1 (centres unmarked)	CIB1 and αIIb interaction (CIB1-GST : F-αIIb peptide) (Homo sapiens, UniProt Q99828)	µM	50.1
NC(=O)C1CCN(c2ncc(Br)s2)CC1	CIB1 and αIIb interaction (CIB1-GST : F-αIIb peptide) (Homo sapiens, UniProt Q99828)	µM	50.1
COc1cccc(C(=O)c2no[n+]([O-])c2C(=O)c2cccc(OC)c2)c1	CIB1 and αIIb interaction (CIB1-GST : F-αIIb peptide) (Homo sapiens, UniProt Q99828)	µM	12.6
